Reference for the values: PubChem BioAssay (NCI)

Test system: HOP-62 NSCLC
experiment-description: NCI-60 one-dose screen, 48 h (100 = growth as untreated, 0 = no growth, -100 = all killed)
experimental-context: 10 µM unless noted
About 83,000 compounds went through this panel and 20% of them were active in at least one assay; those are over-represented in the sample as a whole.
reported-endpoint: growth (%)
Give the quantity in %, number only.

# example entries with known answers
Which growth reading was recorded for the molecule COc1ccc(S(=O)(=O)c2ccc(C(N)=O)cc2)cc1NC(=O)c1[nH]c(C)c2c1CCCCC2=O ?
38.8

How about this molecule: O=C(COc1cccc(/C=C2\COc3ccccc3C2=O)c1)c1ccccc1
98

---
Query: growth; subject: Clc1ccccc1Nc1ccc2nnc(-c3ccncc3)n2n1
112

Another molecule to look at: O=C1c2cc(S(=O)(=O)O)ccc2C(=O)c2c1cccc2[N+](=O)[O-]
117

What do you get for O=C(CCCCCCC(=O)Nc1ccc2c(c1)/C(=C/c1ccc[nH]1)C(=O)N2)NO ?
14

Quick one: Clc1ccc(C2=NN(c3ccccc3)[C@H](c3cn(-c4ccccc4)nc3-c3ccccc3)C2)cc1
108

Another molecule to look at: Cn1c(=O)c(S(=O)(=O)c2ccccc2)cc2ccc3c(cnn3-c3ccc(Cl)cc3)c21
87.3

And O=C(O)CCN1CCN(c2cccc(Cl)c2)CC1 ?
97

Now try Cc1ccc(C)c2c1sc1nc3nc4sc5ccccc5n4c(=N)c3c(=O)n12 .
97.3

Same again, this time with COc1cccc(OC)c1OC(=O)c1ccccc1
110

---

The following compounds are shown together with reported growth values.
Tested on: ACHN renal
experiment-description: NCI-60 one-dose screen, 48 h (100 = growth as untreated, 0 = no growth, -100 = all killed)
experimental-context: 10 µM unless noted
Compounds without any hit were thinned out: in the full panel of roughly 83,000, 20% have a hit. Calls of active or inactive are those of the source. Rule for the calls: active = growth percent below 10; inactive = the rest.

Known growth results, listed for orientation:
Requested read-out: growth. Entry: Cc1ccc2c(c1)c(Sc1ccc(C(=O)NO)cc1)c1n2CN(C)CC1
26.8% (inactive)

Check O=C(Nc1ccc(Cl)c(Cl)c1)OCn1ncc2ccc([N+](=O)[O-])cc21 too.
83.5% (inactive)

What about this compound? CN1CCc2c(c3ccccc3c3ccccc23)C1
25.7% (inactive)

Same question for C[C@]1(CO)C[C@@H](O)C[C@]2(C)[C@@H]1CC[C@@]13C[C@@H]4[C@@H](C[C@H]12)[C@]4(C)C3 please.
97.7% (inactive)

Further cases:
Which growth is listed for N#Cc1c(-c2cccc(F)c2)cc(-c2ccc(Br)s2)[nH]c1=O ?
91.9% (inactive)

Same again, this time with COc1ccc(-c2cc(=O)oc3c4c(ccc23)OCN(Cc2ccc(F)cc2)C4)cc1
64.7% (inactive)

Please do the same for O=C1/C(=C/c2ccc(F)cc2)CN(Cc2cn(CCNc3ccnc4cc(Cl)ccc34)nn2)C/C1=C\c1ccc(F)cc1 as well.
-100% (active)

Continue with c1ccc2c(c1)oc1cc3c(cc12)nnc1cccn13
99.8% (inactive)

Quick one: COC(=O)c1c2c(c(C)[n+]([O-])c1C)C(=O)C=C(NCc1ccc(F)c(Cl)c1)C2=O
-38.4% (active)

Now consider CC(C)OC1=C(Cl)C(=O)c2ccccc2C1=O .
98.5% (inactive)

---

Test system: MCF7 breast
experiment-description: NCI-60 one-dose screen, 48 h
experimental-context: 10 µM unless noted
Experimental: Growth inhibition of the MCF7 human tumor cell line is measured as a screen for anti-cancer activity. Cells are grown in 96 well plates and exposed to the test compound for 48 hours. Compounds are tested at a single concentration, which is 10^-5 M for most compounds. The reported endpoint is percent growth (GI% or GIPRCNT), where numbers from 0 - 100% represent growth inhibition, and numbers from -100% - 0 represent cell death. For example, a value of 40 represents 60% growth inhibition. […]
About 83,000 compounds went through this panel and 20% of them were active in at least one assay; those are over-represented in the sample as a whole. Activity calls are given as the source filed them. How the source made its calls: active means growth percent below 10; inactive means the rest.
Choose the fitting class; nothing outside active, inactive is accepted.

Outcome logged for O=C1CN2CCC1C/C2=C\c1ccnc2c(Cl)cccc12 (stereo unspecified) in this assay:
inactive

What do you get for CCOC(=O)c1cn2c3c(cc(F)cc3c1=O)C(CC)c1ccccc1C2 (stereo unspecified) ?
inactive

Repeat with Cc1nc2cc(Nc3nc(NCCN)nc(Nc4ccc(F)cc4)n3)ccc2n1Cc1ccccc1
inactive

Further, for Clc1ccc(C2=Nc3cccc4cccc(c34)N2)cc1Cl ?
inactive

// query: O=C1/C(=C/c2ccc(Oc3ccccc3)cc2)N=C(c2ccccc2)N1CCc1cccs1
inactive

What about this compound? O=c1nc(NO)[nH]c(=O)n1Cc1ccc(F)cc1
inactive

Now consider COc1ncc(F)c(OC)n1 and answer again.
inactive

Another compound to check: COC(=O)c1c2c(c(C)[n+]([O-])c1C)C(=O)C(NCc1ccc(O)cc1)=CC2=O
active

Others:
Record request — test call for COC(=O)c1ccc(C(=O)Nc2ccccc2N)cc1
inactive

Ok, now Cn1c(=O)c2c(-c3ccccc3F)n(-c3ccc4c(c3)OCO4)cc2n(C)c1=O
inactive

Again, but for Clc1ccc(Nc2ccnc(N3CCN(c4ccnc5cc(Cl)ccc45)CC3)n2)cc1
inactive

Next record, please: Nc1nc(N)c(C=Nc2ccc(Br)cc2)c(Nc2ccc(Br)cc2)n1
inactive

// same read-out, input: O=C(Nc1ccc(F)cc1)c1ccc(C(=O)Nc2ccc(F)cc2)cc1
inactive

Would you mind doing Brc1ccc(SCN(CSc2ccc(Br)cc2)Cc2ccccc2)cc1 as well?
inactive

Lookup COC(=O)c1cc(-c2ccc(C)cc2)n(C(=O)CSc2nc3sc(C(N)=O)c(C)c3c(=O)n2Cc2ccccc2)n1
inactive

Another compound to look at: CCOC(=O)c1cc2c(n(C)c1=O)-c1cnn(-c3ccc(OC)cc3)c1CC2
inactive

Item: COc1ccc(/C=N/OCC(O)CN2CCC(O)CC2)cc1OC1CCCC1 (stereo unspecified)
inactive

Request: CC(C)OC1=C(Cl)C(=O)c2ccccc2C1=O
inactive

Also O=C(CC(O)c1ccccc1)Nc1ccccn1 (stereo unspecified) , if possible.
inactive

What about COc1ccc(-n2ncc3c2ccc2cc(S(=O)(=O)c4ccccc4)c(=O)n(C)c23)cc1 ?
inactive

---

Entries and their growth values follow.
System: T-47D breast
experiment-description: NCI-60 one-dose screen, 48 h (100 = growth as untreated, 0 = no growth, -100 = all killed)
experimental-context: 10 µM
This is part of a sample that, as a whole, favours compounds with a hit. Of some 83,000 tested, about 20% had one in any assay.
Only the number, expressed in %, is required.

Some solved cases for reference:
I would be grateful if you could share the reported growth for Cc1cccc2c(=O)c3c(sc12)c(NCCNCCO)nc1ccccc13 .
44.8

// query: O=C1c2ccccc2C(=O)c2c(Nc3ccc(CCO)cc3)ccc(O)c21
33.2

Param item: COC(=O)c1c2c(c(C)[n+]([O-])c1C)C(=O)C=C(NCc1cccc(Cl)c1)C2=O
-37.6

Now the same for Cc1ccc(S(=O)(=O)N2CCc3ccc(O)c4c3C2Cc2cc(Cl)ccc2-4)cc1 (stereo not given)
65.4

---
Would you kindly share the measured growth for C[C@@H](Oc1cc(-c2cnn(C3CC4(CCCNC4)C3)c2)cnc1N)c1c(Cl)ccc(F)c1Cl (stereo not given in full) ?
20.4

---

Tested on: SK-MEL-2 melanoma
experiment-description: NCI-60 one-dose screen, 48 h
experimental-context: 10 µM unless noted
This is part of a sample that, as a whole, favours compounds with a hit. Of some 83,000 tested, about 20% had one in any assay. Activity calls are given as the source filed them. The calls were made as follows: active = growth percent below 10; inactive = the rest.
I would appreciate it if you answered using one of these outcomes: active, inactive

As a guide, the following entries are already answered.
Each compound tested received a call. Report the one for O=c1oc2ccccc2cc1-c1csc(N=Nc2c(O)[nH]c3ccc(Cl)cc23)n1 .
inactive

Try this compound next: Cc1cc(Cl)c2c(Cl)ccc(Cl)c2n1
inactive

Same again, this time with COc1ncc(F)c(OC)n1
inactive

---
Hey, what did the test say about COc1cc(/C=N/NC(=O)c2cnn3c2NC(c2ccccc2)C3)ccc1OC1CCCC1 (stereo not given) ?
inactive

Another: CC1(C)CC(=O)C2=C(C1)Nc1cc3c(cc1C2c1ccc(F)cc1)OCO3 (stereo not given)
inactive

---

System: NCI-H23 lung
experiment-description: NCI-60 one-dose screen, 48 h (100 = growth as untreated, 0 = no growth, -100 = all killed)
experimental-context: 10 µM unless noted
Compounds without any hit were thinned out: in the full panel of roughly 83,000, 20% have a hit. Active and inactive are the calls of the source. How the source made its calls: active means growth percent below 10; inactive means the rest.
reported-endpoint: growth

The cases that follow already have their growth on record.
Missing value: growth, NCI-H23 lung, entry Nc1cc(Br)c(-c2nnc(CCC(=O)c3nc4ccccc4[nH]3)o2)c(Br)c1 . Fill in?
70.8% (inactive)

Here is the next compound: Oc1ccc(Cl)cc1CNc1nc2ccccc2[nH]1
65.2% (inactive)

Please give the result for Cc1ccc(S(=O)(=O)N2CCc3ccc(O)c4c3C2Cc2ccc3c(c2-4)OCO3)cc1 (stereo unspecified) too.
26.5% (inactive)

Also need FC(F)(F)Oc1ccc2c(c1)C[C@H]1C[C@@H](c3ccoc3)N2O1 , thanks.
96.5% (inactive)

Likewise for CCOC(=O)C1=C(C)N2C(=NC3=C(CCCC/C3=C\c3cc(OC)c(OC)c(OC)c3)C2c2cc(OC)c(OC)c(OC)c2)S1 (stereo unspecified) ?
61.9% (inactive)

Continuing:
Kindly state the measured growth obtained for O=C1OCC2=C1C(c1ccc3c(c1)OCO3)CC(=O)N2c1cccc(Cl)c1 (stereo unspecified) with NCI-H23 lung.
90.2% (inactive)

Quick one: CN1CCc2c(c3ccccc3c3ccccc23)C1
74.2% (inactive)

Now give it for COc1ccc(OC2=CC(=O)c3ccc(C)nc3C2=O)cc1 too.
65.7% (inactive)

Same for COc1cc(-c2nc(SC(C)C)nc(Nc3cccc(C)c3)c2C#N)cc(OC)c1OC
103% (inactive)

Quick one: Cc1ccccc1-c1cc(-c2ccc(Br)s2)[nH]c(=O)c1C#N
96.8% (inactive)

Repeat for the following compound: CC1CCCCN1S(=O)(=O)c1ccc(CN=C=S)cc1 (stereo unspecified)
97.1% (inactive)

Please answer likewise for COC(=O)c1c2c(c(C)[n+]([O-])c1C)C(=O)C=C(NCc1cccc(Cl)c1)C2=O
-63% (active)

What do we get for O=C1c2c(c3c4cc(Br)ccc4[nH]c3c3ccc4ccccc4c23)C(=O)N1O ?
95.7% (inactive)

Again, but for NC(=O)c1nc2c([nH]c1=O)CCCC2
104% (inactive)

What do we get for COc1cc(/C=C2\C(=O)Nc3ccccc32)cc(OC)c1O ?
66.4% (inactive)

Could you do the same for O=C(c1ccc2ncc(-c3nc(NC4CC4)ncc3F)n2c1)N1CCOCC1 , please?
42.5% (inactive)

Please give the result for COc1ccc(/C=C2\SC(=O)N(CN3CCN(c4cc5c(cc4F)c(=O)c(C(=O)O)cn5C4CC4)CC3)C2=O)cc1 too.
96.9% (inactive)

Now give it for O=C1c2ccccc2C(=O)c2c(Nc3ccc(CCO)cc3)ccc(O)c21 too.
93.3% (inactive)

Then O=S(=O)(Nc1ccccc1Cl)c1ccc(-c2cnc(C3CC3)o2)cc1 ?
39.9% (inactive)
